These data points were gathered from patent US20050288323A1.

Target: human histamine H3 receptor (Homo sapiens, UniProt Q9Y5N1)
Construct: One microgram of supercoiled H3 receptor cDNA was added to the cells and mixed; expressed in transfected cells; membranes
Sequence (Q9Y5N1 whole entry): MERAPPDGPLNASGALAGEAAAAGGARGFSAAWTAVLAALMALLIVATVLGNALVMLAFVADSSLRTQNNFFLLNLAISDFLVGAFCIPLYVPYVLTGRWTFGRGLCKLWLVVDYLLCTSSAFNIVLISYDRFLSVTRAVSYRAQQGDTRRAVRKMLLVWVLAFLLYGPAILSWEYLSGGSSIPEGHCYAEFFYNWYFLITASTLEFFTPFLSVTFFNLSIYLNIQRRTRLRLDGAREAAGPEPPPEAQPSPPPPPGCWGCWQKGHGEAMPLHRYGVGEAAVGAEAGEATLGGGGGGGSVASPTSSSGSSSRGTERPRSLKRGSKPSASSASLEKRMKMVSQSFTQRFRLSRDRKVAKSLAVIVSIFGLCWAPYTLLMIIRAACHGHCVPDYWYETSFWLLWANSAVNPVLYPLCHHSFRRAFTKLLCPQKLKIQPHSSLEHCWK
Assay: [3H]-N-methylhistamine binding
Details: Table 5; [3H]-N-methylhistamine binding
measurementType: Ki (nM)
Could you give me the number in nM? Just the number is fine.

// worked examples, Ki included
c1cc(CNc2ccc([C@H]3CC[C@H]4CCCCN43)cc2)cs1 (racemic) [Example 129]	648
c1ccc(CNc2ccc([C@H]3CC[C@H]4CCCCN43)cc2)cc1 (racemic) [Example 132]	511
[O-][n+]1ccc(CNc2ccc([C@H]3CC[C@H]4CCCCN43)cc2)cc1 (racemic) [Example 133]	4380
c1ccc(CNc2ccc([C@H]3CC[C@H]4CCCCN43)cc2)nc1 (racemic) [Example 128]	1340
c1coc(CNc2ccc([C@H]3CC[C@H]4CCCCN43)cc2)c1 (racemic) [Example 130]	647

# Ki measured on human histamine H3 receptor (Homo sapiens, UniProt Q9Y5N1) for item c1cc(CNc2ccc([C@H]3CC[C@H]4CCCCN43)cc2)ccn1 (racemic) [Example 131] = 511

# Ki measured on human histamine H3 receptor (Homo sapiens, UniProt Q9Y5N1) for item c1ccc(CN(Cc2ccccc2)c2ccc([C@H]3CC[C@H]4CCCCN43)cc2)cc1 (racemic) [Example 135] = 3950

# Ki measured on human histamine H3 receptor (Homo sapiens, UniProt Q9Y5N1) for item c1cncc(CNc2ccc([C@H]3CC[C@H]4CCCCN43)cc2)c1 (racemic) [Example 127] = 589

# Ki measured on human histamine H3 receptor (Homo sapiens, UniProt Q9Y5N1) for item c1c[nH]c(CNc2ccc([C@H]3CC[C@H]4CCCCN43)cc2)n1 (racemic) [Example 134] = 3640

----------
Biological target: human histamine H3 receptor (Homo sapiens, UniProt Q9Y5N1)
Construct: One microgram of supercoiled H3 receptor cDNA was added to the cells and mixed; expressed in transfected cells; membranes
Experiment: [3H]-N-methylhistamine binding
Settings: [3H]-N-methylhistamine 0.8 nM, membranes of H3 receptor-expressing SK-N-MC cells
Label 1.0 when Ki is strictly below 200 nM; otherwise label 0.0.

Field: example entries. Status: answers known.
O=[N+]([O-])c1ccc(Oc2ccc([C@H]3CC[C@H]4CCCCN43)cc2)cc1 (racemic) [Example 77]	0.0
c1cc([C@@H]2CCC[C@@H]3CCCN32)ccc1OCCCN1CCCCC1 (racemic) [Example 64]	1.0
c1cc([C@H]2CC[C@H]3CCCCN32)ccc1OCCC1CCCCN1 (some centres unmarked) [Example 86]	1.0
N=C1NC(=N)/C(=C/c2ccc([C@H]3CC[C@H]4CCCCN43)cc2)S1 (relative stereo) [Example 46]	0.0
c1cc([C@H]2CC[C@H]3CCCCN32)ccc1OCCN1CCCCC1 (racemic) [Example 16]	1.0

Please determine if c1cc(C2CCC3CCCN32)ccc1OCCCN1CCCCC1 (centres unmarked) [Example 140] is below 200 nM in terms of Ki.
1.0

Please determine if c1cc(C2CC3CCCCN3C2)ccc1OCCCN1CCCCC1 (centres unmarked) [Example 69] is below 200 nM in terms of Ki.
1.0

Please determine if CS(=O)(=O)N1CCC(Nc2ccc([C@H]3CC[C@H]4CCCCN43)cc2)CC1 (racemic) [Example 102] is below 200 nM in terms of Ki.
0.0

----------
Target: human histamine H3 receptor (Homo sapiens, UniProt Q9Y5N1)
Construct: One microgram of supercoiled H3 receptor cDNA was added to the cells and mixed; expressed in transfected cells; membranes
Assay: [3H]-N-methylhistamine binding
Settings: [3H]-N-methylhistamine 0.8 nM, membranes of H3 receptor-expressing SK-N-MC cells
measurementType: pKi
Please treat pKi as minus the base-10 logarithm of the molar concentration.

c1cc([C@@H]2CC[C@@H]3CCCCN32)ccc1NC1CCNCC1 (relative stereo)	6.50

Value of measured pKi for the entry CC(C)(C)OC(=O)N1CCCCC1CCOc1ccc([C@H]2CC[C@H]3CCCCN32)cc1 (mixture of isomers) : 7.29

Value of measured pKi for the entry `c1cc([C@@H]2CC[C@@H]3CCCCN32)ccc1OCCCN1CCCCC1` : 10.22

Value of measured pKi for the entry Clc1ccc(Cc2ccc([C@H]3CC[C@H]4CCCCN43)cc2)cc1 (racemic) : 6.18

Value of measured pKi for the entry FC(F)(F)CN1CCCCC1CCOc1ccc([C@H]2CC[C@H]3CCCCN32)cc1 (mixture of isomers) : 7.33

----------
Biological target: human histamine H3 receptor (Homo sapiens, UniProt Q9Y5N1)
Construct: One microgram of supercoiled H3 receptor cDNA was added to the cells and mixed; expressed in transfected cells; membranes
Experiment: [3H]-N-methylhistamine binding
Details: [3H]-N-methylhistamine 0.8 nM, membranes of H3 receptor-expressing SK-N-MC cells
Procedure: Thus in the present invention receptor binding was determined using the human histamine H3 receptor (See Lovenberg et al Mol. Pharmacol. 1999, 1107). […] Conventional binding assays for example are determined using rat synaptosomes (Garbarg et al J. Pharmacol. Exp. Ther. 1992, 263, 304), rat cortical membranes (West et al Mol. Pharmacol. 1990, 610), and guinea pig brain (Korte et al Biochem. Biophys. Res. Commun. 1990, 978). […]
Label met when Ki is strictly below 100 nM; otherwise label not met.

Field: example entries. Status: answers known.
c1cc([C@H]2CC[C@H]3CCCCN32)ccc1OCCCN1CCCCC1 [Example 93]	met
c1cc(Sc2ccc(C3CCCC4CCCCN43)cc2)ccn1 (centres unmarked)	not met
c1cc([C@@H]2CCC[C@@H]3CCCN32)ccc1OCCCCCN1CCCCC1	met

Please determine if c1cc(Oc2ccc([C@H]3CC[C@H]4CCCCN43)cc2)ccn1 (racemic) is below 100 nM in terms of Ki.
met

Please determine if CN1CCCC1CCOc1ccc([C@H]2CC[C@H]3CCCCN32)cc1 (mixture of isomers) is below 100 nM in terms of Ki.
met

Please determine if CCN(c1ccc([C@H]2CC[C@H]3CCCCN32)cc1)C1CCN(S(C)(=O)=O)CC1 (racemic) is below 100 nM in terms of Ki.
not met

Please determine if C#Cc1ccc([C@H]2CC[C@H]3CCCCN32)cc1 (racemic) is below 100 nM in terms of Ki.
not met

----------
Biological target: human histamine H3 receptor (Homo sapiens, UniProt Q9Y5N1)
Construct: One microgram of supercoiled H3 receptor cDNA was added to the cells and mixed; expressed in transfected cells; membranes
Test: [3H]-N-methylhistamine binding
Conditions: [3H]-N-methylhistamine binding; value printed under example heading without unit
measurementType: Ki (nM)
Could you give me the number in nM? Just the number is fine.

Value of measured Ki for the entry O/N=C\c1ccsc1-c1ccc([C@H]2CC[C@H]3CCCCN32)cc1 (racemic) : 1480

----------
Molecular target: human histamine H3 receptor (Homo sapiens, UniProt Q9Y5N1)
Construct: One microgram of supercoiled H3 receptor cDNA was added to the cells and mixed; expressed in transfected cells; membranes
Assay: [3H]-N-methylhistamine binding
Conditions: [3H]-N-methylhistamine 0.8 nM, membranes of H3 receptor-expressing SK-N-MC cells
pKi: −log10 of the molar value.
pKi of 7 or higher: y. Under 7: n.

Field: example entries. Status: answers known.
O=C(O)c1ccc(Sc2ccc([C@H]3CC[C@H]4CCCCN43)cc2)cc1 (racemic)	y
CN(c1ccc([C@@H]2CC[C@@H]3CCCCN32)cc1)S(=O)(=O)CCN1CCCCC1 (relative stereo)	y

Check if pKi >= 7 (inclusive). Item: CN(CCCN1CCCCC1)c1ccc([C@@H]2CC[C@@H]3CCCCN32)cc1 (relative stereo)
y

Check if pKi >= 7 (inclusive). Item: c1cc([C@@H]2CCC[C@@H]3CCCN32)ccc1OCCN1CCCCC1 (racemic)
y

----------
Molecular target: human histamine H3 receptor (Homo sapiens, UniProt Q9Y5N1)
Construct: One microgram of supercoiled H3 receptor cDNA was added to the cells and mixed; expressed in transfected cells; membranes
Experiment: [3H]-N-methylhistamine binding
Conditions: Table 3; [3H]-N-methylhistamine binding
# pKi per record follows
Please treat pKi as minus the base-10 logarithm of the molar concentration.

// worked examples, pKi included
c1cc(-c2ccc([C@H]3CC[C@H]4CCCCN43)cc2)cs1 (racemic) [Example 49]	6.30
O=Cc1ccsc1-c1ccc([C@H]2CC[C@H]3CCCCN32)cc1 (racemic) [Example 51]	6.88
O=Cc1ccc(-c2ccc([C@H]3CC[C@H]4CCCCN43)cc2)cc1 (racemic) [Example 52]	6.66
Fc1ccc(-c2ccc([C@H]3CC[C@H]4CCCCN43)cc2)cc1 (racemic) [Example 53]	6.38

Turning now to a further compound:
Value of measured pKi for the entry Nc1cccc(-c2ccc([C@H]3CC[C@H]4CCCCN43)cc2)c1 (racemic) [Example 48] : 6.18
